Source of measurements: ChEMBL document CHEMBL1129269

biological target: D(2) dopamine receptor (Rattus norvegicus, UniProt P61169); experiment: Binding affinity against Dopamine receptor D2 in rat striatal membrane using [3H]spiroperidol as radioligand; assay type: cell membranes, Striatum
Sequence (P61169 whole entry): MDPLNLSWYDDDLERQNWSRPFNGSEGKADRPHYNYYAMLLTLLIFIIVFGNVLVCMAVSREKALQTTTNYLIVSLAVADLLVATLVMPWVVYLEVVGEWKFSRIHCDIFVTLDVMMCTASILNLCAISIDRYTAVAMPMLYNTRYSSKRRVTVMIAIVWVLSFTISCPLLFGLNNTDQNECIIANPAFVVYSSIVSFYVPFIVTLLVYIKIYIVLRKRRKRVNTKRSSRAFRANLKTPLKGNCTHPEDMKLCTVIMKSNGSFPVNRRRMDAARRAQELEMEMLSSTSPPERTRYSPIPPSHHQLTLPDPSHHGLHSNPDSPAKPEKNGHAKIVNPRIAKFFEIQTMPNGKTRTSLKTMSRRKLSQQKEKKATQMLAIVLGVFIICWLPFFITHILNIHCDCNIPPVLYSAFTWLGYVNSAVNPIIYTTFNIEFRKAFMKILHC
Classification scheme (IC50): lower level = under 800 nM, middle level = from 800 nM up to 2000 nM, upper level = 2000 nM and over

Would you mind sorting COc1cccc2c1CCCC2NC(=O)CCN1CCN(c2ccccn2)CC1 (stereo not drawn) into the appropriate category? middle level

---

Each entry below carries its reported pIC50.
target: 5-hydroxytryptamine receptor 1A (Rattus norvegicus, UniProt P19327); assay: Binding affinity against 5-hydroxytryptamine 1A receptor in rat hippocampus membranes using [3H]8-OH-DPAT as radioligand; assay type: cell membranes, Membrane
// returns pIC50 (minus log10 of molar concentration), number only

• COc1cccc2c1CCCC2CNCCN1CCN(c2ccccc2)CC1 (stereo unspecified) = 6.94
• COc1ccccc1N1CCN(CCN(C)C2CCCc3c(OC)cccc32)CC1 (stereo unspecified) = 8.06
• COc1cccc2c1CCCC2C(=O)N(C)CCN1CCN(c2ccccc2)CC1 (stereo unspecified) = 6.57
• COc1cccc2c1CCCC2C(=O)NCCCN1CCN(c2ccccn2)CC1 (stereo unspecified) = 7.02

Could you share which pIC50 value was measured for COc1ccccc1N1CCN(CCCNC2CCCc3c(OC)cccc32)CC1 (stereo unspecified) ? 8.00

Repeat for the following compound: COc1cccc2c1CCCC2NC(=O)CCN1CCN(c2ccccc2)CC1 (stereo unspecified) 6.51

---

Target: 5-hydroxytryptamine receptor 1A (Rattus norvegicus)
Sequence (P19327 whole entry): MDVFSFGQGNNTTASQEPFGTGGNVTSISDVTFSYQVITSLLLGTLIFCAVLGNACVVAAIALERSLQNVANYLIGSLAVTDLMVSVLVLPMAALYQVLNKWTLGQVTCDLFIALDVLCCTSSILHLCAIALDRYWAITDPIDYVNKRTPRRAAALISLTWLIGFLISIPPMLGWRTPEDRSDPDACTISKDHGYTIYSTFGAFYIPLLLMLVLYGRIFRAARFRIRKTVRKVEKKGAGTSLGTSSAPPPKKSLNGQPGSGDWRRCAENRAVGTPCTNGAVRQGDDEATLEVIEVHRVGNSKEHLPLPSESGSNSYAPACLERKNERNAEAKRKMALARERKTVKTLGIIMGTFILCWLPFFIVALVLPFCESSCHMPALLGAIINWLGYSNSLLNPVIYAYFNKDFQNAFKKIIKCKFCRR
Test: Binding affinity against 5-hydroxytryptamine 1A receptor in rat hippocampus membranes using [3H]8-OH-DPAT as radioligand
Format: cell membranes, Membrane
measured-property: log10 of IC50 (log10 of the value in nM)
Values are log10 of IC50 in nM.

- COc1cccc2c1CCCC2NCCCN1CCN(c2ccccc2)CC1 (stereo unspecified): 1.72

Dear colleague, I am looking for the recorded log10 of IC50 of the following compound: COc1cccc2c1CCCC2NCCN1CCN(c2ccccc2)CC1 (stereo unspecified) 1.96

Let us now turn to COc1ccccc1N1CCN(CCN(C)C(=O)C2CCCc3c(OC)cccc32)CC1 (stereo unspecified) 2.49

Please do the same for COc1cccc2c1CCCC2C(=O)N(C)CCCN1CCN(c2ccccc2)CC1 (stereo unspecified) as well. 2.13

Same question, COc1cccc2c1CCCC2NC(=O)CCN1CCN(c2ccccn2)CC1 (stereo unspecified) this time 2.13

Also need COc1ccccc1N1CCN(CCNC2CCCc3c(OC)cccc32)CC1 (stereo unspecified) , thanks. 0.89
